Recorded inhibition at 10 µM values for a group of compounds are listed next.
target: recombinant human CGRP1 receptor (CRLR and RAMP1) (Homo sapiens, UniProt O60894+Q16602); construct: purchased Euroscreen, Belgium ES420-M9; host or cells: CHO-K1 cell membranes; experiment: Inhibition of binding of 3-[125I]-iodohistidyl10-α-CGRP to the human CGRP1 receptor (SPA); settings: read-out: Inhibition in % of binding of 3-[125I]-iodohistidyl10 CGRP; at a concentration of 10 μM of the particular compound
Sequence (Q16602 23-461): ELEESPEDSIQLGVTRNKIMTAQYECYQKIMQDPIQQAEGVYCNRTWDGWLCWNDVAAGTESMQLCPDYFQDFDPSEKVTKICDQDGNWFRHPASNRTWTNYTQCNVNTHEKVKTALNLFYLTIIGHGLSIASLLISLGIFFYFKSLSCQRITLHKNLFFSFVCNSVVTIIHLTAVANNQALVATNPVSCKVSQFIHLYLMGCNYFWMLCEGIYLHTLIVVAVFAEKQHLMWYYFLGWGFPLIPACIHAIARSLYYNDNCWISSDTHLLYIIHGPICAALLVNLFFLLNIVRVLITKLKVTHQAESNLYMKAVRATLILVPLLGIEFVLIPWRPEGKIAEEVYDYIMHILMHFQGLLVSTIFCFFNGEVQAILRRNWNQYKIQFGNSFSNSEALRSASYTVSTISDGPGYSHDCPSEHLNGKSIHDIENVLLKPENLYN
Sequence (O60894 27-148 partner): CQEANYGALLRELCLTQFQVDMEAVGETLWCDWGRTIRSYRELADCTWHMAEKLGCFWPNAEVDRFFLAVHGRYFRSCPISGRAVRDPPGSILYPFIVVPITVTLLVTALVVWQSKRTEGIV
Structures can show the parent of a compound that is named as a salt.
Quantity Measured: inhibition at 10 µM (%)

Compound	Quantitative Result
CN(C)CC1CC(c2ccc(S(C)(=O)=O)cc2)=C(c2ccc(C(C)(C)C)cc2)C1O (centres unmarked) [Example 21, hydrochloride]	26
CN(C)CC1CC(c2ccc(S(C)(=O)=O)cc2)=C(c2cccc(F)c2)C1=O.Cl (centres unmarked) [Example 5, hydrochloride]	58
CN(C)CC1CC(c2ccc(S(C)(=O)=O)cc2)=C(c2cccc(O)c2)C1=O.Cl (centres unmarked) [Example 3, hydrochloride]	66
CN(C)CC1CC(c2ccc(S(C)(=O)=O)cc2)=C(c2cc(F)cc(F)c2)C1=O.Cl (centres unmarked) [Example 1, hydrochloride]	40
COc1cccc(C2=C(c3ccc(S(C)(=O)=O)cc3)CC(CN(C)C)C2=O)c1.Cl (centres unmarked) [Example 13, hydrochloride]	60
